# Experimental Parameters: buffer; pH 7.4; 200.0 µM
# solubility kinetic >= 8 µg/mL gives MET, anything below gives NOT MET

Consider the worked cases shown below.
Compound	Discrete Label
COC(=O)C(C)NC(=O)C12CC3CC(C1)CC(c1ccc(C)cc1)(C3)C2 (configuration not stated)	MET
O=C(Cc1ccccc1)O/N=C1\CCCc2ccccc21	MET
Cc1cc(Cl)ccc1C(=O)C1CCCN(Cc2ccon2)C1 (configuration not stated)	MET
N/C(=N\OC(=O)c1cccc(F)c1)c1ccccn1	MET
Cc1csc2c(NCCCN3CCOCC3)ncnc12	MET
CCOc1ccc(S(=O)(=O)N2CCOCC2)cc1[N+](=O)[O-]	MET

Q. Record "CC1CC(=O)N(c2ccc(Br)cc2)C(=O)C1" ; criterion: solubility kinetic no lower than 8 µg/mL. Met?
A. MET

Q. hey, is solubility kinetic for this one >= 8 µg/mL? "Cc1ccc(C(=O)NC2CCN(C(=O)Nc3ccccc3)CC2)cc1"
A. NOT MET

Q. Given the entry "CC(=O)c1cccc(S(=O)(=O)N2CCC(C(=O)O)CC2)c1" , answer whether its solubility kinetic meets or surpasses 8 µg/mL.
A. MET

Q. Reported solubility kinetic reaches at least 8 µg/mL for "Fc1ccccc1-c1nc(NCc2ccccc2)c2ccccc2n1" ?
A. NOT MET

Q. Determine whether this compound has solubility kinetic no lower than 8 µg/mL: O=C(NC1CCSc2ccccc21)c1cccc([N+](=O)[O-])c1 (configuration not stated)
A. NOT MET

###

log10 solubility kinetic reference
# Experimental Parameters: buffer; pH 7.4; 200.0 µM
All values: log10 solubility kinetic [µg/mL].

Here are 2 compounds together with their reported answers.
Compound	log10 solubility kinetic
S=C(Nc1ccccc1Cl)NC1CCCCCC1	1.34
Cc1cccc(OCCN2C(=O)c3ccccc3C2=O)c1	0.66

Short answer for "COC(=O)c1ccc(Nc2c([N+](=O)[O-])c(=O)oc3ccccc23)cc1" : log10 solubility kinetic was 0.61

// log10 solubility kinetic lookup, compound = "Cc1cc(C)c(N=C2SCC(=O)N2Cc2ccco2)c(C)c1" , result: 1.06

###

This section presents molecules with their documented solubility kinetic values.
# Experimental Parameters: buffer; pH 7.4; 200.0 µM
Report only the number, with the unit µg/mL understood.

Smiles String	Experimental Result
O=C(Nc1cc(Cl)cc(Cl)c1)c1ccno1	8.4
Cc1ccccc1-n1c(=S)[nH]c2nc3c(cc2c1=O)COC(C)(C)C3	30.7
O=c1[nH]c(=S)[nH]c(O)c1/C=C1/C=c2ccccc2=N1	1.8

// next entry
For record "COc1ccc(OC)c(N/C(N)=N/c2nc(C)cc(C)n2)c1" the listed solubility kinetic is 40.5

###

# Experimental Parameters: buffer; pH 7.4; 200.0 µM
A collection of compounds and their measured solubility kinetic
Answer with a number only, understood to be in µg/mL.

Compound	solubility kinetic [µg/mL]
Clc1ccc(-c2nc3cc(CN4CCCCC4)ccc3o2)cc1	23.1

Value of measured solubility kinetic for the entry Cc1cccc(C)c1NC(=O)NC1CCc2ccccc21 (stereo unspecified) : 1

Reported solubility kinetic of COc1cc(OC)cc(C(=O)NCC(C)NC(=O)c2cc(OC)cc(OC)c2)c1 (stereo unspecified) : 39.6

# solubility kinetic (compound: "O=C(CCc1ccc(S(=O)(=O)N2CCOCC2)cc1)OCC(=O)c1ccccc1" ) is 7.6

The recorded solubility kinetic for entry "O=C(CCS(=O)(=O)c1ccccc1)N1CCCc2ccccc21" equals 49.2
